# Test system: SARS-CoV-2 B.1.617.2 (delta)
# Protocol description: microbe, parasite or virus in culture
# Type: cell-based
# Study conditions: Severe acute respiratory syndrome coronavirus 2, Vero C1008; read-out: IC50 against B.1.617.2, 24 h infection
Measurement type: IC50

* O=C(Nc1ccc([N+](=O)[O-])cc1Cl)c1cc(Cl)ccc1O [Niclosamide] | 774 nM

---

# Protocol description: Cell viability in VeroE6, shortened 24 h infection assay
# Study conditions: African green monkey, VeroE6 cells infected with SARS-CoV-2, CC50 (protonophores), VeroE6, 24 h infection conditions, starting concentration 100 μM
Measurement type: CC50 at 25 h (µM)

- O=C(Nc1ccc([N+](=O)[O-])cc1Cl)c1cc(Cl)ccc1O [Niclosamide]: 66
